TESTED_TARGET: T1, EsCas13d, nuclease-dead (Eubacterium siraeum, UniProt B0MS50, R295A;H300A;R849A;H854A)
T1 sequence: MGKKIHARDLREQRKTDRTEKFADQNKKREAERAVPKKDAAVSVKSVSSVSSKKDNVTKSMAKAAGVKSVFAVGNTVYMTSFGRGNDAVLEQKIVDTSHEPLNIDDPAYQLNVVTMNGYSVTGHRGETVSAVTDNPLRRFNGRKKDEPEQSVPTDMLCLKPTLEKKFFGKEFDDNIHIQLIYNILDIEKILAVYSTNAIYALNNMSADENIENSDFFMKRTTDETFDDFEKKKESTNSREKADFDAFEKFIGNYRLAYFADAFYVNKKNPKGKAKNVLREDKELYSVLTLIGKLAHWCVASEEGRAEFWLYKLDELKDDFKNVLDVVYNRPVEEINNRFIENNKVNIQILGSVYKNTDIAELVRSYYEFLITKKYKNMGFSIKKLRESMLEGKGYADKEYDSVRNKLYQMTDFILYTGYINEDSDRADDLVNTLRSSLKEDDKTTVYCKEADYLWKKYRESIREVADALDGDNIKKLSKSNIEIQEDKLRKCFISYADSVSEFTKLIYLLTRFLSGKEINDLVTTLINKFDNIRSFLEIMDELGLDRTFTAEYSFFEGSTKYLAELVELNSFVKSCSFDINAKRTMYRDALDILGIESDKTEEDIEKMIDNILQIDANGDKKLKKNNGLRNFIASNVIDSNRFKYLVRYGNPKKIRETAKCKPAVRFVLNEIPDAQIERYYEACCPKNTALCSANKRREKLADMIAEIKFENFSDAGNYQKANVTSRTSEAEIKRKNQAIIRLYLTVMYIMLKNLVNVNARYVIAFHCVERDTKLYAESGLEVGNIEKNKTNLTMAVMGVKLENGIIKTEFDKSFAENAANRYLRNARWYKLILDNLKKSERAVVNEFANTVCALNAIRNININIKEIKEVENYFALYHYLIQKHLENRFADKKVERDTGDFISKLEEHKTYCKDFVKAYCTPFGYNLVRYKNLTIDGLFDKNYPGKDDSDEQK
MEASUREMENT_DESCRIPTION: crRNA (strand 1, pre-loaded); Mg2+; 40 mM Tris-HCl pH 7.5, 150 mM NaCl, 6 mM MgCl2, 1 mM DTT, 0.1% Tween-20, 0.2 mg/ml BSA; 25 C; 10 min per concentration, then washed
APPLIED_CONDITIONS: tags: His6-TwinStrep-SUMO cleaved; N-terminal SNAP kept (SNAP-Surface 488); label: 3' end held by stalled T7 RNA polymerase
pKd: −log10 of the molar value.
Items are presented alongside their recorded pKd.

{"columns": ["BINDER", "pKd"],
 "data": [
  ["target 1 MT 5'PFS AGA 3'PFS CGG (mixed) RNA 1: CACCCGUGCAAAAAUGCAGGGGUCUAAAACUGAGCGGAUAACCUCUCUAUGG RNA 2: GGGAAUGGAUCCACAUCUACGAAUUCAGACCAUAGAGAGGUUAUCCGCUCACGGAGAUCGGAAGAGCACACGU", 7.38],
  ["target 2 MT 5'PFS AUU 3'PFS AAU (mixed) RNA 1: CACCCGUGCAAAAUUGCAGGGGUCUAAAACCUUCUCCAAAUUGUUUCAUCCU RNA 2: GGGAAUGGAUCCACAUCUACGAAUUCAUUAGGAUGAAACAAUUUGGAGAAGAAUAGAUCGGAAGAGCACACGU", 8.15],
  ["target 1 MT 5'PFS AGU 3'PFS CCG (mixed) RNA 1: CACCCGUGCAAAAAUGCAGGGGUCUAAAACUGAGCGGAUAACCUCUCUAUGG RNA 2: GGGAAUGGAUCCACAUCUACGAAUUCAGUCCAUAGAGAGGUUAUCCGCUCACCGAGAUCGGAAGAGCACACGU", 7.61],
  ["target 1 insA 3' of 17,insG 3' of 6 (mixed) RNA 1: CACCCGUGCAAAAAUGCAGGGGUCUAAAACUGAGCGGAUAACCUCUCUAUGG RNA 2: GGGAAUGGAUCCACAUCUACGAAUUCGUACCAUAGAAGAGGUUAUCCGGCUCACCGAGAUCGGAAGAGCACACGU", 7.71],
  ["target 1 insG 3' of 7,insC 3' of 3 (mixed) RNA 1: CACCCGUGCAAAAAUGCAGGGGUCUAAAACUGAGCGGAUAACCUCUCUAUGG RNA 2: GGGAAUGGAUCCACAUCUACGAAUUCGUACCAUAGAGAGGUUAUCGCGCUCCACCGAGAUCGGAAGAGCACACGU", 8.18],
  ["target 2 MT 5'PFS UGG 3'PFS AAU (mixed) RNA 1: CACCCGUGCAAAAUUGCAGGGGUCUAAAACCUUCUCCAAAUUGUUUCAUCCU RNA 2: GGGAAUGGAUCCACAUCUACGAAUUCUGGAGGAUGAAACAAUUUGGAGAAGAAUAGAUCGGAAGAGCACACGU", 8.23],
  ["target 1 insG 3' of 22,insC 3' of 18 (mixed) RNA 1: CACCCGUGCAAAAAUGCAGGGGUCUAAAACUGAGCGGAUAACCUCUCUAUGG RNA 2: GGGAAUGGAUCCACAUCUACGAAUUCGUACGCAUACGAGAGGUUAUCCGCUCACCGAGAUCGGAAGAGCACACGU", 7.14],
  ["target 1 U19A,C22U (mixed) RNA 1: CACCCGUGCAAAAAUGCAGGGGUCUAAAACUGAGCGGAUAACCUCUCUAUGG RNA 2: GGGAAUGGAUCCACAUCUACGAAUUCGUAUCAAAGAGAGGUUAUCCGCUCACCGAGAUCGGAAGAGCACACGU", 7.15]
]}

Value source: paper PMC10786891
